B1: CPEB3 Ribozyme (parent)
chain: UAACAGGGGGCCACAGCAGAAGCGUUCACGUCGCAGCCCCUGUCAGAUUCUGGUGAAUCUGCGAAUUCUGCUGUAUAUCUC

# Variants of: B1
# METHOD NOTES: self-cleavage, relative activity (ratio to wild type); higher = more cleavage; in vitro, sequencing
Give Fulfilled when the value for self-cleavage is at least 0.3. Give Not fulfilled when it is less.

{"columns": ["RESIDUE CODES", "ASSIGNED CLASS"],
 "data": [
  ["UGACAGGGGGCCACAGCAAAAGCGUUCACGUCGCAGCCCCUGUCAGAUUCUGGUGAAUCUGCGAAUUCUGCUGUAUAUCUC [A2G G19A]", "Fulfilled"],
  ["UAACAGGGGGCCACAGCAGAAGCGUUCACGUCGCAGCCCCUGUCAGAUUCUGGUGAAUCUGUGAAUUCUGCUGUACAUCUC [C62U U76C]", "Fulfilled"],
  ["UAACAGGGGGCCACAGCAGAAGCGUUCACGACGCAGCCCUUGUCAGAUUCUGGUGAAUCUGCGAAUUCUGCUGUAUAUCUC [U31A C40U]", "Not fulfilled"],
  ["UAACAGGGGGCCACAGCAGAAGCGUUCGCGUCGCAGCCCCUGUCUGAUUCUGGUGAAUCUGCGAAUUCUGCUGUAUAUCUC [A28G A45U]", "Fulfilled"],
  ["UAACAGGGGGCCACAGCAGAAGCGUUCACGGCGCAGCCCCUGUCAGAUUCUGGUGAAUCAGCGAAUUCUGCUGUAUAUCUC [U31G U60A]", "Fulfilled"],
  ["UAACAGGGGGCCACAGCAGAAGCGUUCACGUCGCUGCCCCUGUCAGAUUCUGGUGGAUCUGCGAAUUCUGCUGUAUAUCUC [A35U A56G]", "Fulfilled"],
  ["UAACAGGGGGCCACAGCAGAAGCGUACACGUCGCAGCCCCUGUCAGAUUCUGGUGAAUCUCCGAAUUCUGCUGUAUAUCUC [U26A G61C]", "Not fulfilled"],
  ["UAACAUGGGGCCACAGCAGAAGCGUUCACGUCGCAGCCCCUGUCAGUUUCUGGUGAAUCUGCGAAUUCUGCUGUAUAUCUC [G6U A47U]", "Not fulfilled"],
  ["UGACAGGGGGCCACAGCAGAAGCGUUCACGUCGCAGCCCCUGUCAGAAUCUGGUGAAUCUGCGAAUUCUGCUGUAUAUCUC [A2G U48A]", "Not fulfilled"],
  ["UAACAGGGGGCGACAGCAGAAGCGUUCACGCCGCAGCCCCUGUCAGAUUCUGGUGAAUCUGCGAAUUCUGCUGUAUAUCUC [C12G U31C]", "Fulfilled"],
  ["UAACAGGGGGCCACAGCGGAAGCGUUCACGUCGCAGCCCCUGUCGGAUUCUGGUGAAUCUGCGAAUUCUGCUGUAUAUCUC [A18G A45G]", "Fulfilled"],
  ["UAACAGGGGGCCACAGUAGAAGCGUUCACGUCGCAGCCCCUGUCAGAUUCUGGUGAAUCUGCGAAUUCCGCUGUAUAUCUC [C17U U69C]", "Not fulfilled"],
  ["UAACAGGGGGCCACAGCAGAAGCGUUCACGUCGCAGCCCCAGUCAGAUUCUGGUGAAUCUGUGAAUUCUGCUGUAUAUCUC [U41A C62U]", "Not fulfilled"],
  ["UAACAGGGGGCCACAGCAGAAGCGUUCACGUCGCAGCCCCUGGCAGAUUCUGGUGAAUCUGCGGAUUCUGCUGUAUAUCUC [U43G A64G]", "Fulfilled"],
  ["UAACAGGGGGCCACAGCAGAAGCGUUCACGUUGCAGCCCCUGUCAGAUACUGGUGAAUCUGCGAAUUCUGCUGUAUAUCUC [C32U U49A]", "Not fulfilled"],
  ["UAACAGGGGGCCACAGCAGAUGCGUUCACGUCGCAGCCCCUGUCAGAUUCUGGUGAAUCUGCGGAUUCUGCUGUAUAUCUC [A21U A64G]", "Not fulfilled"],
  ["UAAUAGGGGGCCACAGCAGAAGCGUUCACGUCGCGGCCCCUGUCAGAUUCUGGUGAAUCUGCGAAUUCUGCUGUAUAUCUC [C4U A35G]", "Fulfilled"],
  ["UAACAGGGGGCCACAGCAGAAGCGUUCACGUCGCAGCCCUUGUCAGAUUCUGGAGAAUCUGCGAAUUCUGCUGUAUAUCUC [C40U U54A]", "Fulfilled"],
  ["UAACAGGGGGGCACAGCAGAAGCGUUCACGUCGCAGCCCCUGUCAGAUUCUGGUGAAUCUGCGAAUUCUGCCGUAUAUCUC [C11G U72C]", "Fulfilled"],
  ["UAACAGGGGGCCAUAGCGGAAGCGUUCACGUCGCAGCCCCUGUCAGAUUCUGGUGAAUCUGCGAAUUCUGCUGUAUAUCUC [C14U A18G]", "Fulfilled"],
  ["UAACAGGGGGCCACAGCAGAAGCGUUCUCGUCGCAGCCCCUGUCAGAUUCUGGUGAAUCUGCGAAUCCUGCUGUAUAUCUC [A28U U67C]", "Not fulfilled"],
  ["UAACAGGGGGCCACAGCAGAAGCGUUCACGUCGCAGCCCCUGGCAGAUUCUGGUGAAUCUGCGAAUUCUGCUGUAUAUCCC [U43G U80C]", "Not fulfilled"],
  ["UAGCAGGGGGCCACAGCAGAAGCGUUCACGUCGCAGCCGCUGUCAGAUUCUGGUGAAUCUGCGAAUUCUGCUGUAUAUCUC [A3G C39G]", "Fulfilled"],
  ["UAACAGGGGGCCACAGCAGAAGCGUUCACUUCGCAGCCCCUGUCAGAUUCUGGUGAAUCUGCGAAUUCUGCUGUAUAUGUC [G30U C79G]", "Not fulfilled"],
  ["UAACAGGGGGCCACAGCAGGAGCGUUCACGUCGCAGCCCCUGUCAGAUUCUGGUGAAUCUGCGAAUUCUGCUGUAUAUAUC [A20G C79A]", "Fulfilled"],
  ["UCACAGGGUGCCACAGCAGAAGCGUUCACGUCGCAGCCCCUGUCAGAUUCUGGUGAAUCUGCGAAUUCUGCUGUAUAUCUC [A2C G9U]", "Not fulfilled"],
  ["UAACAGGGGGCCACAGCAGAAGCGUUCACGUCGCGGCCCCUGUCAGAUUCUGGUGAAUCUGCGAGUUCUGCUGUAUAUCUC [A35G A65G]", "Fulfilled"],
  ["UAUCAGGGGGCCACAGCAGAAGCGUUCACGUCGCAGCCCCUGUCAGAUUCUGGUGAAUCUGCGGAUUCUGCUGUAUAUCUC [A3U A64G]", "Fulfilled"],
  ["UAACAGGGGGCCACAGCGGAAGCGUUCACGUCGCAGCCCCUGUCAGAUUCUGGGGAAUCUGCGAAUUCUGCUGUAUAUCUC [A18G U54G]", "Fulfilled"],
  ["UAACAGGGGGCCACAGCAGAAGCGUUCACGUCGCAGCCCCUGUCAGAUUCUGGUGAAUCUGCGAAUUCUGCUGUACAUCAC [U76C U80A]", "Fulfilled"],
  ["UAACAGGUGGCCACAGCAGAAGCGUUCACGCCGCAGCCCCUGUCAGAUUCUGGUGAAUCUGCGAAUUCUGCUGUAUAUCUC [G8U U31C]", "Not fulfilled"],
  ["UAACAGGGGGCCACAGCAGAAGCGUUCACGUCGCAGCCCCUGUUAGAUUCUGGUGAAUCUGCGAAUUCUGCUGUAUAUCAC [C44U U80A]", "Fulfilled"],
  ["UAACAGGGGGCCACAGCAGAAGCGUUCACGUCGCAGCUCCUGUCAGAUUCUGAUGAAUCUGCGAAUUCUGCUGUAUAUCUC [C38U G53A]", "Fulfilled"],
  ["UAACAGCGGGCCACAGCAGAAGCGUUCACGUCGCAGCCCCUGUCAGAUUCUGGUGAAUCUGCGAAUCCUGCUGUAUAUCUC [G7C U67C]", "Not fulfilled"],
  ["UAACAGGGGGCCACAGCAGAAGCGUUCAUGUCGCAGCCCCUGUCAGAUUCUGGUGAAUCUGCGAAUUCUGCUGUAUAUCAC [C29U U80A]", "Fulfilled"],
  ["UAACUGGGGGCCACAGCAGAAGCGUUCACGUCGCAGCCCCUGUCAGAUUCUGGUGAAUCUGCGAAUUCUGCAGUAUAUCUC [A5U U72A]", "Fulfilled"],
  ["UAACAGGGGGCCACAGCAGAAGCGUUCACGUCGCAGCCCCUGCCAGAUUCUGGUGAAUCUGCGAACUCUGCUGUAUAUCUC [U43C U66C]", "Fulfilled"],
  ["UAACAGGGGGCCACAGCAGAAGCGUUCACGUCGCAGCCCCUGUCAGAUUCUGGUGAAUCUGCGAAUUCGGCUGUAUAUCGC [U69G U80G]", "Fulfilled"],
  ["UAACAGGGGGCCACAGCAGAAGCGUUCCCGUCGCAGCCCCUGUCAGAUUCUGGUGAAUCUGCGAAUUCUGCUGUAUAUCUU [A28C C81U]", "Fulfilled"],
  ["UAACAGGGGGCCACAGCAGAAGCGUUCACGUCGCAGCCCCUGUCAGAUUCUGGUGAAUCUGCGUAUUCCGCUGUAUAUCUC [A64U U69C]", "Not fulfilled"],
  ["UAACAGGGGGCCACAGCAGAAGGGUUCACGUCGCAGCCCCUGUCAGAUUCUGGUGAAUCCGCGAAUUCUGCUGUAUAUCUC [C23G U60C]", "Not fulfilled"],
  ["UAACAGGCGGCCACAGCAGAAGCGUUCACGGCGCAGCCCCUGUCAGAUUCUGGUGAAUCUGCGAAUUCUGCUGUAUAUCUC [G8C U31G]", "Fulfilled"],
  ["UAACAGGGGGCCACAGCGGAACCGUUCACGUCGCAGCCCCUGUCAGAUUCUGGUGAAUCUGCGAAUUCUGCUGUAUAUCUC [A18G G22C]", "Not fulfilled"],
  ["UAACAGGGGGCCACAGCAGAAGCGUUCACGUCGCAGCCCCUGUCAGAUUCUGGUGAAUCUGCGAAUUAAGCUGUAUAUCUC [C68A U69A]", "Not fulfilled"],
  ["UAACAGGGGGCCACAGCAGAAGCGUUCACGUCGCAGCCCCUGUCUGAUUCUGGAGAAUCUGCGAAUUCUGCUGUAUAUCUC [A45U U54A]", "Fulfilled"],
  ["UAACAGGGGGCCACAGCAGAAGCGUUCACGUCGCAGCCCCUGUCAGGUUCUGGUGAAUCUGCGAAUUCUGCUGUAUAGCUC [A47G U78G]", "Fulfilled"],
  ["UAACAGGGGGCCACAGCAGGAGCGUUCACGUCGCAGCCCCUGUCAGUUUCUGGUGAAUCUGCGAAUUCUGCUGUAUAUCUC [A20G A47U]", "Fulfilled"],
  ["UAACAGGGGGCCACAGGAGAAGCGUUCACGUCGCAGCCCCUGUCAGAUUCCGGUGAAUCUGCGAAUUCUGCUGUAUAUCUC [C17G U51C]", "Fulfilled"],
  ["UAACAGGGGGCCACAGCAGAGGCGUUCACGUCGCAGCCACUGUCAGAUUCUGGUGAAUCUGCGAAUUCUGCUGUAUAUCUC [A21G C39A]", "Not fulfilled"],
  ["UAACAGGGGGCCACAGCAGAAGCGUUCACGUCGGAGCCCCUGUCAGAUUCUGGUGAAUGUGCGAAUUCUGCUGUAUAUCUC [C34G C59G]", "Not fulfilled"],
  ["UAACAGGGGGCCACAGCAGAAGCGUUCACGUCGCAGCCACUGUCAGAUACUGGUGAAUCUGCGAAUUCUGCUGUAUAUCUC [C39A U49A]", "Not fulfilled"],
  ["UAACAGGGGUCCACAGCAGAAGCGUUCACGUCGCAGCCCCUGUCAGAUUCUGGUGAAUCUGCGAGUUCUGCUGUAUAUCUC [G10U A65G]", "Not fulfilled"],
  ["UAACAGGGGGCCACAGCAGAAGCGUUCAGGUCGCAGCCCCUGUCAGAUUCUGGCGAAUCUGCGAAUUCUGCUGUAUAUCUC [C29G U54C]", "Not fulfilled"],
  ["UAACAGGGGGCCACAGCAGAAGCGUUCACGUCGCAGCCCCAGUCAGAUUCUGGUGAAUCUGCGAAUUCUGCUGUAUAUCAC [U41A U80A]", "Not fulfilled"],
  ["UAACAGGGGGACACAGCAGAAGCGUUCACGUCGCAGCCCCUGUCAGAUUCUGGUGGAUCUGCGAAUUCUGCUGUAUAUCUC [C11A A56G]", "Fulfilled"],
  ["UAACAGGGGGCCACAGCAGAAGCGUUCACGUCGCAGCCCCUGUCAGAUACUAGUGAAUCUGCGAAUUCUGCUGUAUAUCUC [U49A G52A]", "Fulfilled"],
  ["UAACAGGGGGCCACAGCAGAAGCGUCCACGUCGCAGCCCCUGUCAGAUUCUGGUGAAUCUGCGAAAUCUGCUGUAUAUCUC [U26C U66A]", "Not fulfilled"],
  ["UAACAGGGGGCCACAGCAGAAGCGUUCACGUCGCAGCCCGAGUCAGAUUCUGGUGAAUCUGCGAAUUCUGCUGUAUAUCUC [C40G U41A]", "Not fulfilled"],
  ["UAACAGGGGGCCACAGCAGAAGCGUUCACGUCGCAGCCCAUGUCAGAUUCAGGUGAAUCUGCGAAUUCUGCUGUAUAUCUC [C40A U51A]", "Fulfilled"],
  ["UAACAGGGGGCCACAGCAGAAGCGUUCACGUCGCAGCCCCGGCCAGAUUCUGGUGAAUCUGCGAAUUCUGCUGUAUAUCUC [U41G U43C]", "Fulfilled"],
  ["UAACAGGGGGCCACAGCAGAAGCGUUCACGUCGCAGCCCCUGUCAGAUUCUGGUGAAUCUGCGAAUCCUGCUGUAUAUUUC [U67C C79U]", "Fulfilled"],
  ["UUACAGGGGGCCACAGCAGAAGCGUUCACGUCGCAGCCACUGUCAGAUUCUGGUGAAUCUGCGAAUUCUGCUGUAUAUCUC [A2U C39A]", "Fulfilled"]
]}

Values from the RNAGym collection of RNA variant scans (doi:10.1093/nar/gkz1192)
